System: MDA-MB-453
experiment: normalised viability (% of control), CellTiter-Blue; higher = more viable cells (about 100 = DMSO control)
study conditions: incubation time: 72 h
For each entry below, report its normalised viability value.
Unit % implied. Number only.

[Q] Record request: normalised viability value, item COc1c2occc2cc2ccc(=O)oc12 [Methoxsalen] (10000 nM)
[A] 28.5

[Q] Field entry: CC[C@H](CO)Nc1nc(NCc2ccccc2)c2ncn(C(C)C)c2n1 [Roscovitine] (10000 nM)
[A] 63.4

[Q] Field entry: CC(C)(C)NC(=O)[C@H]1CC[C@H]2[C@@H]3CC[C@H]4NC(=O)C=C[C@]4(C)[C@H]3CC[C@]12C [Finasteride] (10000 nM)
[A] 23

[Q] Field entry: Cn1cc(C2=C(c3cn(C4CCN(Cc5ccccn5)CC4)c4ccccc34)C(=O)NC2=O)c2ccccc21 [Enzastaurin] (10000 nM)
[A] 51.9

====

For each entry below, report its normalised viability value.
Tested on: DU-4475
experiment: normalised viability (% of control), CellTiter-Blue; higher = more viable cells (100 = DMSO, 0 = benzethonium chloride kill control)
study conditions: incubation time: 72 h
Unit % implied. Number only.

[Q] Find the measured normalised viability: item CNC(=O)c1ccccc1Sc1ccc2c(/C=C/c3ccccn3)n[nH]c2c1 [Axitinib] (1 nM) , target or system DU-4475.
[A] 115

[Q] Field entry: CC[C@H](CO)Nc1nc(NCc2ccccc2)c2ncn(C(C)C)c2n1 [Roscovitine] (1 nM)
[A] 103

[Q] Field entry: COc1cc(Nc2c(C#N)cnc3cc(OCCCN4CCN(C)CC4)c(OC)cc23)c(Cl)cc1Cl [Bosutinib] (1 nM)
[A] 105

[Q] Field entry: CC(C)C[C@H](NC(=O)[C@@H](COC(C)(C)C)NC(=O)[C@H](Cc1ccc(O)cc1)NC(=O)[C@H](CO)NC(=O)[C@H](Cc1c[nH]c2ccccc12)NC(=O)[C@H](Cc1cnc[nH]1)NC(=O)[C@@H]1CCC(=O)N1)C(=O)N[C@@H](CCCNC(=N)N)C(=O)N1CCC[C@H]1C(=O)NNC(N)=O [Goserelin] (1 nM)
[A] 99.3

[Q] Field entry: CO[C@@H]1[C@H](N(C)C(=O)c2ccccc2)C[C@H]2O[C@]1(C)n1c3ccccc3c3c4c(c5c6ccccc6n2c5c31)C(=O)NC4 [Midostaurin] (1 nM)
[A] 100

[Q] Field entry: CCNC(=O)c1noc(-c2cc(C(C)C)c(O)cc2O)c1-c1ccc(CN2CCOCC2)cc1 [NVP-AUY922] (0.1 nM)
[A] 109

====

Tested on: SK-BR-3
experiment: drug sensitivity score (DSS), CellTiter-Blue viability (DSS (AUC-based score)); higher = stronger viability inhibition; extreme values may be limits of the assay
study conditions: incubation time: 72 h
assay endpoint: drug sensitivity score

[Q] Find the measured drug sensitivity score: item C=CCn1c(=O)c2cnc(Nc3ccc(N4CCN(C)CC4)cc3)nc2n1-c1cccc(C(C)(C)O)n1 , target or system SK-BR-3.
[A] 20.4

[Q] Field entry: CO[C@@]12[C@H](COC(N)=O)C3=C(C(=O)C(C)=C(N)C3=O)N1C[C@@H]1N[C@@H]12
[A] 9.21

[Q] Field entry: C/C(=C\c1csc(C)n1)[C@@H]1C[C@@H]2O[C@]2(C)CCC[C@H](C)[C@H](O)[C@@H](C)C(=O)C(C)(C)[C@@H](O)CC(=O)N1 [Ixabepilone]
[A] 3.73

[Q] Field entry: C=CCN(/C=C1/C(=O)O[C@H](COC)[C@@]2(C)C1=C(O)C(=O)C1=C2[C@H](OC(C)=O)C[C@]2(C)C(=O)CC[C@@H]12)CC=C
[A] 9.05
